All values here come from ChEMBL document CHEMBL4715727.

For each of the molecules below, state its IC50.
# studySystem: Sodium-dependent dopamine transporter (Homo sapiens, UniProt Q01959)
# Sequence (Q01959 whole entry): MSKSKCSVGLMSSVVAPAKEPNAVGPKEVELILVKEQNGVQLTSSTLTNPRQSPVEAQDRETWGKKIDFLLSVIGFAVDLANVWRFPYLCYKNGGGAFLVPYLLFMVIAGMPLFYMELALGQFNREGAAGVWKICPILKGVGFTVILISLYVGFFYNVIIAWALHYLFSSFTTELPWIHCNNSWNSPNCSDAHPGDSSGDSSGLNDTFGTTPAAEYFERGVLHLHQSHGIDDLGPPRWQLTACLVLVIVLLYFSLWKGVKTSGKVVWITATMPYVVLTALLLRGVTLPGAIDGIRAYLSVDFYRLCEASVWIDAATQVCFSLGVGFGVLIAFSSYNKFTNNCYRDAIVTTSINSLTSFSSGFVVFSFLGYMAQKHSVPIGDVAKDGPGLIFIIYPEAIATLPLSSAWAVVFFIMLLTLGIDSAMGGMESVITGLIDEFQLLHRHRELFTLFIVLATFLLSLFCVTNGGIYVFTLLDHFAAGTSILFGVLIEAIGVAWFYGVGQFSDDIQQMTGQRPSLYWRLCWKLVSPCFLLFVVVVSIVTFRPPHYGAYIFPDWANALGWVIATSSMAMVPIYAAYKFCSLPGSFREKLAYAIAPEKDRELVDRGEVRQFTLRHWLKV
# assayProcedure: Inhibition of human DAT expressed in CHO-K1 cells assessed as inhibition of [3H]-dopamine reuptake measured after 60 mins by Microscintillation counting analysis
# Type: cell-based

For every listed record, write down its IC50.
1. CCOCC(=O)NC[C@@H]1CNCCO[C@H]1c1ccc(Cl)c(F)c1.Cl
2. CC(=O)NC[C@@H]1CNCCO[C@H]1c1ccc(Cl)c(Cl)c1.Cl
3. CC(C)OCC(=O)NC[C@@H]1CNCCO[C@H]1c1ccc(Cl)c(F)c1.Cl

Solution:
1. > 1 µM
2. > 1 µM
3. > 1 µM

---

Assignment: determine reported Drug metabolism for the given compounds.
# studySystem: UniProt:P08684
# Sequence (P08684 whole entry): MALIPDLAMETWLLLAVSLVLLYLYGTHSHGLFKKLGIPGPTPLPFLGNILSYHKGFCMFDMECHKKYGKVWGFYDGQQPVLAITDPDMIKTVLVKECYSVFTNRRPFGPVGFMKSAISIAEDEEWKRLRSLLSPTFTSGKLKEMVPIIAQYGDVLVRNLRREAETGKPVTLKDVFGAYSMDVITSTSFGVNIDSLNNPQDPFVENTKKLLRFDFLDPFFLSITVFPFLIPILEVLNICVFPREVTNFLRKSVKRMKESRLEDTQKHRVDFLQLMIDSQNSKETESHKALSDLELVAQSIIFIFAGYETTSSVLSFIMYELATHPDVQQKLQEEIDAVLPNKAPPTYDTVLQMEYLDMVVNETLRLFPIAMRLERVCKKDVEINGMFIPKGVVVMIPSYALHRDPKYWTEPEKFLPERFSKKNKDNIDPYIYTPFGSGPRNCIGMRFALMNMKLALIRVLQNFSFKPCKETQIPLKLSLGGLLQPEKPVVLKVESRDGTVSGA
# assayProcedure: Drug metabolism assessed as CYP3A4 (unknown origin) expressed in microsomes-mediated metabolism by measuring metabolic rate at 1 uM incubated for 10 mins by UPLC analysis
# Assay type: ADME, Microsome
One number for each entry, in %/min/pmol.

Worked set:
Problem: Could you tell me which Drug metabolism is on file for `CC(C)OCC(=O)NC[C@@H]1CNCCO[C@H]1c1ccc(Cl)c(F)c1.Cl` ?
Solution: 0.064

Problem: Thanks! And `COCC(=O)NC[C@@H]1CNCCO[C@H]1c1ccc(Cl)c(F)c1.Cl` ?
Solution: 0

Problem: Please answer likewise for `Cl.[2H]C([2H])([2H])OCC(=O)NC[C@@H]1CNCCO[C@H]1c1ccc(Cl)c(F)c1`
Solution: 0.015

Shift focus to the following entry.
Problem: // Drug metabolism lookup, key: `CCOCC(=O)NC[C@@H]1CNCCO[C@H]1c1ccc(Cl)c(F)c1.Cl`
Solution: 0.026

---

# assayProcedure: Drug metabolism assessed as CYP2B6/CYP2C9/CYP2E1/CYP2C8/CYP1A2 (unknown origin) expressed in microsomes-mediated metabolism by measuring metabolic rate at 1 uM incubated for 10 mins by UPLC analysis
# Type: ADME, Microsome
# setupConditions: human
measuredParameter: Drug metabolism (%/min/pmol)
Answers are plain numbers, in %/min/pmol.

Sample answers from the record:
Problem: For the molecule shown here, `CC(C)OCC(=O)NC[C@@H]1CNCCO[C@H]1c1ccc(Cl)c(F)c1.Cl` , give the reported Drug metabolism.
Solution: 0

Problem: And the next one, `CCOCC(=O)NC[C@@H]1CNCCO[C@H]1c1ccc(Cl)c(F)c1.Cl` ?
Solution: 0

Problem: Could you do the same for `Cl.[2H]C([2H])([2H])OCC(=O)NC[C@@H]1CNCCO[C@H]1c1ccc(Cl)c(F)c1` , please?
Solution: 0.008

From here, focus on the item given below.
Problem: I would be grateful if you could share the reported Drug metabolism for `COCC(=O)NC[C@@H]1CNCCO[C@H]1c1ccc(Cl)c(F)c1.Cl` .
Solution: 0
